test system: THP-1 viability, CellTiter-Glo luminescence, 72 h; experiment: THP-1 cell cytotoxicity, dose response, cytotoxicity control for Salmonella PhoP regulon inhibitors, S. typhimurium screen hits (AID 2253)
I'd be grateful if you could share measured EC50 for these entries.

For the compound Cc1ccccc1Nc1cc(C)c2c(O)cccc2n1 , what EC50 is on record?
7.56 µM

GET /values?readout=EC50&item= CCCCCCOC(=O)Sc1nc2ccccc2o1
35 µM

Which value of EC50 has been reported for CCCCCCCNC(=O)C1(CC2CC(c3cccc(Br)c3)=NO2)CCNCC1 (configuration not stated) in the records?
4.13 µM

Quick one: EC50 of CCOc1ccc2c(c1)nc(SCC(=O)c1ccc(Br)s1)n2C ?
47.3 µM

For the compound CCNC(=S)NNC(=O)c1ccccn1 , what EC50 is on record?
25.5 µM

// returns reported EC50 for input CCn1c(SCc2nc3scc(-c4ccccc4)c3c(=O)[nH]2)nnc1-c1cccs1
46.6 µM

Which EC50 reading was recorded for the compound Cc1nnc(N/N=C/c2ccccn2)[nH]c1=O ?
0.81 µM

Bench note: what EC50 did CC1OC(Nc2cccc3ccccc23)C(O)C(O)C1O (configuration not stated) show?
12 µM

Returns the measured EC50 for the input compound. Input: CCCCCCCCCCCCCCCCn1cc[n+](CC(C)=O)c1
0.8 µM

Would you mind telling me what EC50 value was observed for CCc1ccc(NC(=O)C[n+]2cc(-c3ccc(C)cc3)n3c2CCC3)cc1 ?
5.74 µM

# get_value(readout='EC50', item= c1ccc2c(c1)Sc1ccccc1N2CC1CN2CCC1CC2 (configuration not stated) )
7.93 µM

May I ask what EC50 has been recorded for Cc1cc(C(=O)N/N=C/c2cc(Br)cc([N+](=O)[O-])c2O)c2ccccc2n1 ?
23 µM

----------
Could you please report measured EC50 for the items listed next?
test system: THP-1 viability, CellTiter-Glo luminescence, 72 h; experiment: THP-1 cell cytotoxicity, dose response, cytotoxicity control for Salmonella PhoP regulon inhibitors, S. typhimurium screen hits (AID 2253)

What reported EC50 corresponds to CC1=NN(c2ccc(Cl)cc2)C(=O)C1C(c1cccc(O)c1)c1c(C)[nH]n(-c2ccc(Cl)cc2)c1=O (stereo unspecified) on THP-1 viability, CellTiter-Glo luminescence, 72 h?
35.5 µM

Record lookup: for THP-1 viability, CellTiter-Glo luminescence, 72 h, what EC50 belongs to COc1cccc(/C=N\NC(=O)Cn2nnc3ccccc32)c1O ?
10.9 µM

Recorded EC50 for Oc1ccc(CNc2ccccc2F)c2cccnc12 with THP-1 viability, CellTiter-Glo luminescence, 72 h, please?
4.93 µM

Lab request: please report EC50 under test system THP-1 viability, CellTiter-Glo luminescence, 72 h for COc1ccc(C)cc1C(=O)CCC(=O)Nc1ccccc1N1CCOCC1
8.33 µM

Notebook: pull reported EC50 for THP-1 viability, CellTiter-Glo luminescence, 72 h, entry CCN1CCN(C(c2ccc(C(F)(F)F)cc2)c2ccc3cccnc3c2O)CC1 (stereo unspecified)
1.78 µM

What is its EC50 for THP-1 viability, CellTiter-Glo luminescence, 72 h? Entry: Clc1ccc(OCCN2CCN(c3ncnc4sccc34)CC2)cc1
< 0.1 µM

Entry CSc1ccc2c(c1)C(N1CCN(C)CC1)Cc1ccccc1S2 (stereo unspecified) , system THP-1 viability, CellTiter-Glo luminescence, 72 h: what EC50 was measured?
10.6 µM

Notebook entry, THP-1 viability, CellTiter-Glo luminescence, 72 h assay: EC50 of CCCCCCCCCCCCCCCCn1cc[n+](C)c1 = ?
0.37 µM

# query: EC50 | item C[C@H]1O[C@@H](n2cc(F)c(=O)[nH]c2=O)[C@H](O)[C@@H]1O | system: THP-1 viability, CellTiter-Glo luminescence, 72 h
43.8 µM

Record Brc1cccc(CNc2nc3ccccc3n2CCN2CCCCC2)c1 : what is its EC50 with THP-1 viability, CellTiter-Glo luminescence, 72 h?
26.3 µM

For the record CCOC(=O)C(C)/C(C)=N/NC(=O)c1cc2ccccc2cc1O (stereo unspecified) , what value of EC50 is listed for THP-1 viability, CellTiter-Glo luminescence, 72 h?
6.99 µM

----------
system: THP-1 viability, CellTiter-Glo luminescence, 72 h; assay: THP-1 cell cytotoxicity, dose response, cytotoxicity control for Salmonella PhoP regulon inhibitors, S. typhimurium screen hits (AID 2253)
QUANTITY_KIND: pEC50
The read-out pEC50 is expressed as -log10 of concentration in moles per litre.

Kindly state the measured pEC50 obtained for CN1CCc2c(sc(NC(=O)c3ccc([N+](=O)[O-])o3)c2C(N)=O)C1 with THP-1 viability, CellTiter-Glo luminescence, 72 h.
6.21

Request: pEC50, test system THP-1 viability, CellTiter-Glo luminescence, 72 h, entry COc1ccc(C(=O)Oc2c(CN3CCOCC3)cc(Cl)c3cccnc23)cc1
5.18

// lookup pEC50 | system=THP-1 viability, CellTiter-Glo luminescence, 72 h | key= CN(C)CC(C(=O)c1ccccc1)c1ccccc1 (stereo unspecified)
5.31

Give the reported pEC50 for Cc1cc(C)nc(/N=C(\N)Nc2ccc(SC(F)F)cc2)n1 (system: THP-1 viability, CellTiter-Glo luminescence, 72 h).
4.88

API: value(readout= pEC50, system= THP-1 viability, CellTiter-Glo luminescence, 72 h, query= CCN1/C(=C/C=C/C=C/c2sc3ccccc3[n+]2CC)Sc2ccccc21 )
5.34

For THP-1 viability, CellTiter-Glo luminescence, 72 h, provide pEC50 of O=C(CN1CCCC1)N/N=C/c1c(O)ccc2ccccc12 please.
5.46

Could you share what pEC50 was measured for Cc1ccc(Nc2cc(C)nn2-c2nc(C)cc(=O)[nH]2)cc1 , tested on THP-1 viability, CellTiter-Glo luminescence, 72 h?
6.21

Form entry - test system: THP-1 viability, CellTiter-Glo luminescence, 72 h; read-out: pEC50; molecule: COc1ccccc1-c1c(C#N)c(N)nc2c1CCc1ccccc1-2
4.88

// lookup pEC50 | system=THP-1 viability, CellTiter-Glo luminescence, 72 h | key= Nc1nc2ccccc2n1Cc1ccc(Cl)c(Cl)c1
4.61

Give pEC50 (THP-1 viability, CellTiter-Glo luminescence, 72 h) of the following molecule: Cc1ccc2nc(C)c(CN3CCN(c4ccc([N+](=O)[O-])cc4Cl)CC3)n2c1
4.70

# get_value(readout= pEC50, system= THP-1 viability, CellTiter-Glo luminescence, 72 h) for CC(=O)n1cc(/C=N/NC(=O)c2sc(C)nc2C)c2ccccc21
4.94

----------
tested on: THP-1 viability, CellTiter-Glo luminescence, 72 h; assay: THP-1 cell cytotoxicity, dose response, cytotoxicity control for Salmonella PhoP regulon inhibitors, S. typhimurium screen hits (AID 2253)
pEC50: −log10 of the molar value.
Task for the reader: assign each of the following compounds its reported pEC50.

What does the data say about its pEC50? Entry: Oc1c(CN2CCCCC2)cc(COCc2ccccc2)c2cccnc12
5.22

Reported pEC50, compound O=C(NC(NC(=S)Nc1ccc(Cl)c(Cl)c1)C(Cl)(Cl)Cl)c1ccco1 (stereo unspecified) : ____
4.63

For the compound shown here, C[C@H]1c2cccc(O)c2C(O)=C2C(=O)[C@]3(O)C(O)=C(C(N)=O)C(=O)[C@@H](N(C)C)C3[C@@H](O)C21 (stereo partly specified) , give the reported pEC50.
4.51

Recorded pEC50 of O=C(c1ccc(F)cc1)C(CN1CCOCC1)c1ccccc1 (stereo unspecified) , please.
5.16

Give the measured pEC50 of Cc1conc1NC(c1cccs1)c1ccc2cccnc2c1O (stereo unspecified) .
5.26

For the compound N#C/C(=C\c1ccc(F)c(F)c1)C(=O)NC1CCCCC1 , what pEC50 is on record?
4.33

What does the data say about its pEC50? Entry: C/C(=N\Nc1ncnc2sc(C)c(C)c12)c1ccccn1
> 7.00

Sample CCCCCCCCOC(=O)C1=C(C)Nc2nnnn2C1c1cccs1 (stereo unspecified) — what was its pEC50?
4.66

Query (compound): Cc1cc(Nc2ccccc2)nc2cc(O)ccc12 ; field requested: pEC50
4.44

GET /values?readout=pEC50&item= NC1=NC[C@H](Cc2ccccc2)N1CCCCC1CCCCC1
5.43

Bench note: what pEC50 did CC1CCN(c2ccc(NC(=S)NC(=O)c3ccc(-c4cccc([N+](=O)[O-])c4)o3)cc2)CC1 show?
4.64

----------
I'd appreciate it if you could supply pEC50 values for the items below.
test system: THP-1 viability, CellTiter-Glo luminescence, 72 h; test: THP-1 cell cytotoxicity, dose response, cytotoxicity control for Salmonella PhoP regulon inhibitors, S. typhimurium screen hits (AID 2253)
Keep in mind that pEC50 stands for -log10 of concentration in molar terms.

Record COc1ccc(Nc2cc(C)c3c(O)cccc3n2)cc1 : what is its pEC50 with THP-1 viability, CellTiter-Glo luminescence, 72 h?
4.82

Look up pEC50 with THP-1 viability, CellTiter-Glo luminescence, 72 h for this compound: Oc1c(C(Nc2nc3ccccc3s2)c2ccco2)ccc2cccnc12 (stereo not drawn)
6.19

Field: pEC50 (THP-1 viability, CellTiter-Glo luminescence, 72 h). Entry: c1csc(C2Nc3cccc4cccc(c34)N2)c1
4.31

Write down the reported pEC50 of COc1c(N2CCN(C(=S)NCc3ccccc3)C(C)C2)c(F)cc2c(=O)c(C(=O)O)cn(C3CC3)c12 (stereo not drawn) , test system: THP-1 viability, CellTiter-Glo luminescence, 72 h.
4.81

Fill in the recorded pEC50 for this compound, with THP-1 viability, CellTiter-Glo luminescence, 72 h as test system: Cc1cc(C(=O)N/N=C/c2cc(Br)cc(Br)c2OC(=O)c2ccccc2)n[nH]1
5.12

What pEC50 appears in the records for this compound with THP-1 viability, CellTiter-Glo luminescence, 72 h? CCOC(=O)CSc1n[nH]c(NC(=O)c2cccc(C)c2)n1
4.31

Please state recorded pEC50 (tested on THP-1 viability, CellTiter-Glo luminescence, 72 h) of O=C(N/N=C/c1c[nH]c2ccccc12)c1cc(-c2cccc3ccccc23)n[nH]1
4.86

Given the entry Oc1c(CN2CCN(c3ccc(F)cc3)CC2)cc(Cl)c2cccnc12 , what pEC50 was observed with THP-1 viability, CellTiter-Glo luminescence, 72 h?
5.20

Please provide the recorded pEC50 for CCOc1ccc(/C=C/C(=O)Nc2ccc(OC)cc2[N+](=O)[O-])cc1 , tested on THP-1 viability, CellTiter-Glo luminescence, 72 h.
4.56

Quick check: pEC50 on THP-1 viability, CellTiter-Glo luminescence, 72 h, item CCCCCCCCCCCCCCCC[n+]1cccc2ccccc21 ?
6.57

Please state recorded pEC50 (tested on THP-1 viability, CellTiter-Glo luminescence, 72 h) of O=C(N/N=C/c1cc(Cl)ccc1O)c1cccnc1
5.68

Form field - read-out: pEC50; system: THP-1 viability, CellTiter-Glo luminescence, 72 h; submitted item: O=C(Nc1nc(-c2ccncc2)cs1)C1c2ccccc2Oc2ccccc21
4.77

Param readout = pEC50; param system = THP-1 viability, CellTiter-Glo luminescence, 72 h; param query = Oc1ccc(C=Nc2cccc3ncccc23)c(O)c1 ; response: value
4.36

GET /values?readout=pEC50&system=THP-1 viability, CellTiter-Glo luminescence, 72 h&item= O=C(Oc1c(CN2CCOCC2)cc(Cl)c2cccnc12)c1ccc(F)cc1
5.15

Recall the recorded pEC50 for CC1CCCC(C)N1/N=C/c1c[nH]c2ccc(Br)cc12 (stereo not drawn) with THP-1 viability, CellTiter-Glo luminescence, 72 h and state it.
4.84

What reported pEC50 corresponds to CCn1c(C)cc(=S)c2ccccc21 on THP-1 viability, CellTiter-Glo luminescence, 72 h?
4.32

Kindly state the measured pEC50 obtained for C1=C(CCNc2ncnc3c2[nH]c2ccccc23)CCCC1 with THP-1 viability, CellTiter-Glo luminescence, 72 h.
5.20

Which measured pEC50 belongs to CN1CCN(C(c2ccc(C(F)(F)F)cc2)c2cc(Cl)c3cccnc3c2O)CC1 (stereo not drawn) , tested on THP-1 viability, CellTiter-Glo luminescence, 72 h?
5.53

Field: pEC50 (THP-1 viability, CellTiter-Glo luminescence, 72 h). Entry: O=C(N/N=C/c1c[nH]c2ccccc12)c1cc(-c2ccc3ccccc3c2)n[nH]1
5.52

What pEC50 appears in the records for this compound with THP-1 viability, CellTiter-Glo luminescence, 72 h? CC[n+]1c(/C=C/c2ccc(N(C)C)cc2)ccc2ccccc21
6.19

Form entry - test system: THP-1 viability, CellTiter-Glo luminescence, 72 h; read-out: pEC50; compound: O=c1c(Cl)c(Cl)cnn1Cc1ccccc1Cl
5.53

Return pEC50 measured with THP-1 viability, CellTiter-Glo luminescence, 72 h given this compound: CCCCCCCCn1c2c(c(=N)c3ccccc31)CCC2
6.01

Missing value: pEC50, THP-1 viability, CellTiter-Glo luminescence, 72 h, entry N/C(=N\OC(=O)N1c2ccccc2Sc2ccccc21)c1ccccc1 . Fill in?
4.60
